System: PDAC cell lines (Capan-1, PANC-1, AsPC-1, MIA PaCa-2)
Test: Cytotoxicity/cell viability (CellTiter-Glo) of DMPatA on PDAC cell lines, 48 h (FIG. 6A)
Assay type: cell-based
Conditions: four PDAC cell lines (Capan-1, PANC-1, AsPC-1, MIA PaCa-2)
Experimental: FIG. 6A compares cytotoxicity graphs of the effect (viability) of DMPatA on various PDAC cell lines (Capan-1, PANC-1, AsPC-1, MIA PaCa-2) following 48 hours of treatment. Previous studies have reported that inhibitors of translation initiation prevent cell proliferation and reduce levels of critical oncoproteins such as MYC and cyclinD1. The effects of DMPatA, a novel inhibitor of eIF4A helicase, was evaluated on four PDAC cell lines. […]
Reported metric: IC50

[in] Fill blank: measured IC50 of the compound CC(/C=C/C(C)=C/[C@@H]1Cc2nc(cs2)CC[C@@H](N)CC(=O)O[C@@H](C)C/C(C)=C/C=C\C(=O)O1)=C\CN(C)C is ____.
[out] 2.8 to 10 nM
